test system: Escherichia coli; test: Antibacterial activity against Escherichia coli NCIM 2688 after 8 hrs by serial dilution method; assay type: functional, organism-based; details: NCIM 2688, 8 h
Numbered stars: 1 amine (or outer) side, 2 acyl side, 3 side chain; on linkers, the order of the positions; unused ones are H or OH. Square brackets hold non-standard residues; d marks the D form. Peptide text beside a SMILES is read from it. Pro(N-(CH2)3Gua,cis-4-NH-) = N=C(N)NCCCN1C[C@@H](N[*:1])C[C@H]1C(=O)[*:2]; Pro(cis-4-guanidino) = NC(N)=N[C@@H]1CN[C@H](C(=O)O)C1; βAla = NCCC(=O)O
measurement type: MIC
Please answer in the form of a number followed by its unit of measurement.

Answered examples (2):
Quick check: MIC of `CC(=O)N[C@@H](Cc1ccccc1)C(=O)NCC(=O)N[C@@H](CCCNC(=N)N)C(=O)N[C@@H](CCCCN)C(=O)N[C@@H](CCCCN)C(=O)N[C@@H](CCCNC(=N)N)C(=O)N[C@@H](CCCNC(=N)N)C(=O)N[C@@H](CCC(N)=O)C(=O)N[C@@H](CCCNC(=N)N)C(=O)N[C@@H](CCCNC(=N)N)C(=O)N[C@@H](CCCNC(=N)N)C(N)=O` ?
6.27 µM

Next record, please: CC(=O)N[C@@H](Cc1ccccc1)C(=O)NCC(=O)N[C@@H](CCCNC(=N)N)C(=O)N[C@@H](CCCCN)C(=O)N[C@@H](CCCCN)C(=O)N[C@@H](CCCNC(=N)N)C(=O)N[C@@H](CCCNC(=N)N)C(=O)N[C@@H](CCC(N)=O)C(=O)N[C@@H](CCCNC(=N)N)C(=O)N[C@@H](CCCNC(=N)N)C(=O)N1C[C@@H](NC(=N)N)C[C@H]1C(=O)NCCC(N)=O (Ac-FGRKKRRQRR[Pro(cis-4-guanidino)][βAla]-NH2)
6.73 µM

Consider the record given below.
Quick check: MIC of CC(=O)N[C@@H](Cc1ccccc1)C(=O)NCC(=O)N[C@@H](CCCNC(=N)N)C(=O)N[C@@H](CCCCN)C(=O)N[C@@H](CCCCN)C(=O)N[C@@H](CCCNC(=N)N)C(=O)N[C@@H](CCCNC(=N)N)C(=O)N[C@@H](CCC(N)=O)C(=O)N[C@@H](CCCNC(=N)N)C(=O)N[C@@H](CCCNC(=N)N)C(=O)N[C@H]1C[C@@H](C(=O)NCCC(N)=O)N(CCCNC(=N)N)C1 (Ac-FGRKKRRQRR[Pro(N-(CH2)3Gua,cis-4-NH-)][βAla]-NH2) ?
5.71 µM

Each recorded value in this set is attributed to ChEMBL document CHEMBL4152250.
